Origin of values: patent US11407715B2

Experiment: in vitro
Conditions: African green monkey
Kindly state CC50 for each of the entries shown.
Please respond with the number in µM and leave the unit unwritten.

Could you tell me which CC50 is on file for COc1cc(NC(C(=O)N2CCc3ccc(OC(F)(F)F)cc32)c2ccc(Cl)cc2OC)cc(OCCC(C)C(=O)O)c1 (single isomer, unassigned) [Compound 17A] ? 11

Entry COc1cc(NC(C(=O)N2CCc3ccc(OC(F)(F)F)cc32)c2ccc(Cl)cc2)cc(OCC2CC2C(=O)O)c1 (stereo not drawn) [Compound 6AA] please 8.3

Entry COc1cc(NC(C(=O)N2CCc3ccc(OC(F)(F)F)cc32)c2ccc(Cl)cc2)cc(OCCCCC(=O)O)c1 (racemic) [Compound 13] please 12

Entry COc1cc(CCCCC(=O)O)cc(NC(C(=O)N2CCc3ccc(OC(F)(F)F)cc32)c2ccc(Cl)cc2)c1 (single isomer, unassigned) [Compound 14A] please 16

Entry COc1cc(NC(C(=O)N2CCc3ccc(OC(F)(F)F)cc32)c2ccc(Cl)cc2OC)cc(OCC2CC2C(=O)O)c1 (stereo not drawn) [Compound 19AA] please 11

Entry COc1cc(CCCC(=O)O)cc(NC(C(=O)N2CCc3ccc(OC(F)(F)F)cc32)c2ccc(Cl)cc2)c1 (single isomer, unassigned) [Compound 15A] please 8.4

====

Tested on: DENV-2 strain 16681
Experiment: Tetravalent RT-qPCR assay, serotype 2
Assay type: cell-based, Dengue virus
Settings: RT-qPCR serotype 2 16681, Vero cells
Recorded metric: pEC50
Please report pEC50 as the negative decimal logarithm of the molar concentration, giving only the number.

Could you tell me which pEC50 is on file for COc1cc(NC2CC(C(=O)O)C2)cc(NC(C(=O)N2CCc3ccc(OC(F)(F)F)cc32)c2ccc(Cl)cc2)c1 (single isomer, unassigned) [Compound 33D] ? 9.18

Entry COc1cc(NC(C(=O)N2CCc3ccc(OC(F)(F)F)cc32)c2ccc(Cl)cc2)cc(OC2CC(C(=O)O)C2)c1 (stereo not drawn) [Compound 7B] please 9.92

Entry COc1cc(NC(C(=O)N2CCc3ccc(OC(F)(F)F)cc32)c2ccc(Cl)cc2)cc(OCC(C)CC(=O)O)c1 (single isomer, unassigned) [Compound 4D] please 9.89

Entry COc1cc(NC(C(=O)N2CCc3ccc(OC(F)(F)F)cc32)c2ccc(Cl)cc2)cc(OCC2CC2C(=O)O)c1 (stereo not drawn) [Compound 6BB] please 9.92

Entry COc1cc(NC(C(=O)N2CCc3cc(OC)c(C(F)(F)F)cc32)c2ccc(Cl)cc2)cc(OCC2CC2C(=O)O)c1 (stereo not drawn) [Compound 22BB] please 9.48

Entry COc1cc(NC(C(=O)N2CCc3ccc(OC(F)(F)F)cc32)c2ccc(Cl)cc2)cc(OCCC(C)C(=O)O)c1 (single isomer, unassigned) please 9.64

====

Kindly state EC50 for each of the entries shown.
Tested on: DENV-2 strain 16681
Test: Tetravalent RT-qPCR assay, serotype 2
Type: cell-based, Dengue virus
Details: RT-qPCR serotype 2 16681, Vero cells
Kindly report the value followed by its unit.

Could you tell me which EC50 is on file for COc1cc(NC(C(=O)N2CCc3ccc(OC(F)(F)F)cc32)c2ccc(Cl)cc2)cc(OCC(C)CC(=O)O)c1 (single isomer, unassigned) [Compound 4C] ? 0.06 nM

Entry COc1cc(NC(C(=O)N2CCc3cc(OC)c(C(F)(F)F)cc32)c2ccc(Cl)cc2)cc(OCCC(C)C(=O)O)c1 (single isomer, unassigned) [Compound 20C] please 0.071 nM

Entry COc1cc(NC(C(=O)N2CCc3cc(F)c(OC(F)(F)F)cc32)c2ccc(Cl)cc2)cc(OCC2CC(C(=O)O)C2)c1 (stereo not drawn) [Compound 31A] please 0.11 nM

Entry COc1cc(NC(C(=O)N2CCc3ccc(OC(F)(F)F)cc32)c2ccc(Cl)cc2)cc(OC2CC(C(=O)O)C2)c1 (stereo not drawn) [Compound 8B] please 0.025 nM

Entry COc1cc(NC(C(=O)N2CCc3cc(OC)c(C(F)(F)F)cc32)c2ccc(Cl)cc2)cc(OCC2CC2C(=O)O)c1 (stereo not drawn) [Compound 22AB] please 0.029 nM

Entry COc1cc(NC(C(=O)N2CCc3ccc(OC(F)(F)F)cc32)c2ccc(Cl)cc2OC)cc(OCC2CC2C(=O)O)c1 (stereo not drawn) [Compound 19BB] please 0.078 nM
